- Experiment: Permeability from apical to basolateral side of the Caco-2 cell
- Type: ADME, cell-based
- Condition Parameters: human, read-out: permeability
Quantity: Papp A→B (×10⁻⁶ cm/s)
Expressed in ×10⁻⁶ cm/s, but write only the number.

Fill blank: measured Papp A→B of the molecule `O=C(O)[C@@H]1CCCN1S(=O)(=O)c1cc(Cl)c(Cl)c(Cl)c1O` is ____.
0.4

====

- System Tested: RNA-directed RNA polymerase (Hepacivirus hominis, UniProt O39930)
- Sequence (O39930 whole entry): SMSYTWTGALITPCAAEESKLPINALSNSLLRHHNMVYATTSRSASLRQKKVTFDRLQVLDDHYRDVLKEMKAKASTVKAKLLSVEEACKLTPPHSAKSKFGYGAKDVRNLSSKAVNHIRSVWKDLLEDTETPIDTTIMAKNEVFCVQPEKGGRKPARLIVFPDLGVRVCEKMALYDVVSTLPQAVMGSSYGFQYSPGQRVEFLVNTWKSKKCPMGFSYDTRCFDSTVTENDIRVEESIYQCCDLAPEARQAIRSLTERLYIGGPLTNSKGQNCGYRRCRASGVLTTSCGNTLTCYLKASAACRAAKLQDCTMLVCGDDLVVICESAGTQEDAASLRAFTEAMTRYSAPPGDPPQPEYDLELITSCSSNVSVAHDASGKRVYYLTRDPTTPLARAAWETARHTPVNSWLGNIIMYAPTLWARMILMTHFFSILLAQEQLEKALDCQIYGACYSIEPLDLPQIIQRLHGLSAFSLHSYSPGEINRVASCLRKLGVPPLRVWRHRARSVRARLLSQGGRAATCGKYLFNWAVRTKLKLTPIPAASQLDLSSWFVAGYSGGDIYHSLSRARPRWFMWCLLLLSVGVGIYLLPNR
pIC50: −log10 of the molar value.
pIC50 values, listed per item

Past entries and their recorded results:
Structure	pIC50
Cc1cc(NC(=O)c2ccccc2)c(S(=O)(=O)N2CCC[C@H]2C(=O)O)cc1Cl	< 4.70
N#C[C@@H]1CCCN1S(=O)(=O)c1cc(Cl)cc(Cl)c1O	5.85
COC(=O)[C@@H]1CCCN1S(=O)(=O)c1cc(Cl)cc(Cl)c1O	< 4.70

Fill in the recorded pIC50 for this molecule, with RNA-directed RNA polymerase (Hepacivirus hominis, UniProt O39930) as test system: `O=C(O)[C@@H]1CCCN1S(=O)(=O)c1cc(Cl)c(Cl)c(Cl)c1O`
7.10

Fill in the recorded pIC50 for this molecule, with RNA-directed RNA polymerase (Hepacivirus hominis, UniProt O39930) as test system: `Nc1ccccc1S(=O)(=O)N1CCC[C@H]1C(=O)O`
< 4.70

Fill in the recorded pIC50 for this molecule, with RNA-directed RNA polymerase (Hepacivirus hominis, UniProt O39930) as test system: `O=C(O)[C@@H]1CCCN1S(=O)(=O)c1cc(Cl)cc(Cl)c1`
< 4.70
